# test protocol: Confirmation Concentration-Response Assay for lipid storage modulators; note: nearly all actives have a fitted effect of over 80% in size
# recorded conditions: Drosophila S3 cells, lipid droplet BODIPY/CellTracker ratio, 18-24 h; series mostly up to 46.1 µM
Records with an inconclusive call do not appear. The source made the active and inactive calls. Calls come from the whole dose curve; as a rule, active = well fitted inhibition curve with a large enough effect; inconclusive = small, poorly fitted or top-dose-only effect, or effect the other way, or another doubt; inactive = no such curve, though single readings can be large or run the other way.
A correct response names exactly one class from active, inactive

Hey, what did the test say about O=C(NCc1ccccc1)NC1(C(=O)N2CCCC2)CCCCC1 ?
inactive

Hey, what did the test say about CCOC(=O)c1cc(CC)sc1NC(=O)C1CC(=O)NN1Cc1ccccc1 (stereo not given) ?
active

Hey, what did the test say about CSCCC(NS(=O)(=O)c1ccc2c(c1)OCCO2)C(=O)N(C)Cc1ccc(C)cc1 (stereo not given) ?
inactive
